# measurement-target: UniProtKB P61169
# Sequence (P61169 whole entry): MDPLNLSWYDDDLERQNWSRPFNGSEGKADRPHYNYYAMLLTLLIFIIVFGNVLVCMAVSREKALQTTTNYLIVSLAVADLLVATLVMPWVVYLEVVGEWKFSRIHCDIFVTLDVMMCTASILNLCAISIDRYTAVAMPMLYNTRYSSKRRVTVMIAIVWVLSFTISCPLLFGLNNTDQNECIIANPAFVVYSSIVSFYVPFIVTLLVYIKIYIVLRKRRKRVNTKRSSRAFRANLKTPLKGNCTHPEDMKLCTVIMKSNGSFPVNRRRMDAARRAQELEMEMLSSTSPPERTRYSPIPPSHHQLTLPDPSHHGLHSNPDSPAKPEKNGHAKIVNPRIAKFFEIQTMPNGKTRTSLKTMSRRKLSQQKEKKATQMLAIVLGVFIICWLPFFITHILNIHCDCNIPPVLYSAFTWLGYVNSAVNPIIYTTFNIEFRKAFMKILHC
# assay-explanation: Displacement of [3H]spiperone from dopamine D2 receptor of rat striatal membranes
# Type: cell membranes, Membrane
measurement-name: IC50

smi | measurement-target | result
COc1ccc2[nH]cc(CCCCN3CCN(c4ccc5c(c4)CCO5)CC3)c2c1 | UniProtKB P61169 | > 100 nM
COc1ccc2[nH]cc(CCCCN3CCN(c4ccc5c(c4)CCCO5)CC3)c2c1 | UniProtKB P61169 | > 100 nM
COc1ccc2[nH]cc(CCCCN3CC=C(c4ccc(O)cc4)CC3)c2c1 | UniProtKB P61169 | ~100 nM
COc1ccc(N2CCN(CCCCc3c[nH]c4ccc(OCc5ccccc5)cc34)CC2)cc1 | UniProtKB P61169 | > 100 nM
Oc1ccc2[nH]cc(CCCCN3CCN(c4ccccc4)CC3)c2c1 | UniProtKB P61169 | 4.2 nM
COc1ccc(C2=CCN(CCCCc3c[nH]c4ccc(OC)cc34)CC2)cc1 | UniProtKB P61169 | > 100 nM

Value source: ChEMBL document CHEMBL1138746
